Tested on: MDR1
Assay: in vitro
Settings: dog, MDCK-MDR1, pH 7.4, MDCK-MDR1: Papp B-A (10^−6, cm/s)
In this section we review reported Papp B→A at 120 min, 5 μM values for a set of compounds.
Respond with the bare value in nm/s.

Check MDR1 data and give Papp B→A at 120 min, 5 μM for Oc1cc(-c2cn[nH]c2)c(F)cc1-c1cnc(N(C2CC2)[C@H]2C[C@@H]3CCC(N3)[C@H]2F)cn1 (single isomer, unassigned) .
344

Check MDR1 data and give Papp B→A at 120 min, 5 μM for CN(c1cnc(-c2ccc(-c3cn[nH]c3)cc2O)cn1)[C@H]1C[C@@H]2COCC(N2)[C@H]1F (single isomer, unassigned) .
825

New cases:
Check MDR1 data and give Papp B→A at 120 min, 5 μM for COc1cc(-c2ccc(-c3cnc(N(C)[C@H]4C[C@@H]5COCC(N5)[C@H]4F)cn3)c(O)c2)ccn1 (single isomer, unassigned) .
34

====

System: MDR1 (P-gp)
Experiment: MDCK-MDR1 permeability assay, blood-brain-barrier penetration potential
Details: dog, MDCK-MDR1, pH 7.4, MDCK-MDR1 Efflux Ratio
quantity_kind: efflux ratio at 120 min, 5 μM
# answer = number (no unit)

# annotated cases, reported efflux ratio at 120 min, 5 μM shown
Check MDR1 (P-gp) data and give efflux ratio at 120 min, 5 μM for COc1cc(-c2ccc(-c3cnc(N(C4CC4)[C@H]4C[C@@H]5CCC(N5)[C@H]4F)cn3)c(O)c2)cc(F)n1 (single isomer, unassigned) [Compound 52E2] .
2

Check MDR1 (P-gp) data and give efflux ratio at 120 min, 5 μM for Cn1cnc(-c2ccc(-c3cnc(N(C4CC4)[C@@H]4CC5CC[C@H](N5)[C@@H]4F)cn3)c(O)c2)cc1=O (single isomer, unassigned) [Compound 55E1] .
26

Check MDR1 (P-gp) data and give efflux ratio at 120 min, 5 μM for COc1cc(-c2ccc(-c3cnc(N(C)[C@@H]4C[C@@]5(C)CC[C@](C)(N5)[C@@H]4F)cn3)c(O)c2)cnn1 [Compound 25E1] .
7

New cases:
Check MDR1 (P-gp) data and give efflux ratio at 120 min, 5 μM for Cn1cnc(-c2cc(O)c(-c3cnc(N(C4CC4)[C@H]4C[C@@H]5CCC(N5)[C@H]4F)cn3)cc2F)cc1=O (single isomer, unassigned) [Compound 50E2] .
38

Check MDR1 (P-gp) data and give efflux ratio at 120 min, 5 μM for CN(c1cnc(-c2ccc(-c3cc[nH]c(=O)c3)cc2O)cn1)[C@H]1C[C@@H]2COCC(N2)[C@H]1F (single isomer, unassigned) [Compound 82E2] .
120

Check MDR1 (P-gp) data and give efflux ratio at 120 min, 5 μM for CN(c1cnc(-c2cc(F)c(-c3cnn(CF)c3)cc2O)cn1)[C@H]1C[C@@H]2CCC(N2)[C@H]1F (single isomer, unassigned) [Compound 29E2] .
3

====

In this section we review reported efflux ratio at 120 min, 5 μM values for a set of compounds.
System: MDR1 (P-gp)
Assay: MDCK-MDR1 permeability assay, blood-brain-barrier penetration potential
Conditions: dog, MDCK-MDR1, pH 7.4, MDCK-MDR1 Efflux Ratio
# answer = number (no unit)

Give reported efflux ratio at 120 min, 5 μM value for CN(c1cnc(-c2ccc(-c3ccn(C)c(=O)c3)cc2O)cn1)[C@H]1C[C@@H]2CCCC(N2)[C@H]1F (single isomer, unassigned)
36

Give reported efflux ratio at 120 min, 5 μM value for CN(C)C(=O)c1cc2cc(O)c(-c3cnc(N(C)[C@H]4CC5CC[C@@H](N5)[C@H]4F)cn3)cc2o1 (single isomer, unassigned)
31

Give reported efflux ratio at 120 min, 5 μM value for COc1cc(-c2cc(O)c(-c3cnc(N(C)[C@@H]4CC5CC[C@H](N5)[C@@H]4F)cn3)cc2F)ccn1 (single isomer, unassigned)
1

Give reported efflux ratio at 120 min, 5 μM value for CNC(=O)/C=C/c1cc(O)c(-c2cnc(N(C)[C@@H]3C[C@@]4(C)CC[C@](C)(N4)[C@@H]3F)cn2)cc1F
29

Give reported efflux ratio at 120 min, 5 μM value for Cc1nc(-c2ccc(-c3cnc(N(C)[C@@H]4CC5CC[C@H](N5)[C@@H]4F)cn3)c(O)c2)no1 (single isomer, unassigned)
2

Give reported efflux ratio at 120 min, 5 μM value for Oc1cc(-n2ccnn2)c(F)cc1-c1cnc(N(C2CC2)[C@H]2C[C@@H]3CCC(N3)[C@H]2F)cn1 (single isomer, unassigned)
7

====

Tested on: MDR1
Experiment: in vitro
Conditions: dog, MDCK-MDR1, pH 7.4, MDCK-MDR1: Papp B-A (10^−6, cm/s)
In this section we review reported Papp B→A at 120 min, 5 μM values for a set of compounds.
Respond with the bare value in ×10⁻⁶ cm/s.

# annotated cases, reported Papp B→A at 120 min, 5 μM shown
Give reported Papp B→A at 120 min, 5 μM value for CN(c1cnc(-c2ccc(-c3cnn(C)c3)cc2O)cn1)[C@H]1C[C@@H]2CCC(N2)[C@H]1F (single isomer, unassigned) [Compound 16E2]
28.4

Give reported Papp B→A at 120 min, 5 μM value for CN(c1cnc(-c2cc(F)c(-c3cn[nH]c3)cc2O)cn1)[C@H]1C[C@@H]2CCC(N2)[C@H]1F (single isomer, unassigned) [Compound 40E2]
37.1

New cases:
Give reported Papp B→A at 120 min, 5 μM value for CN(c1cnc(-c2ccc(-c3cn[nH]c3)cc2O)cn1)[C@H]1CC2CCC[C@@H](N2)[C@H]1F (single isomer, unassigned) [Compound 6E2]
22.2

Give reported Papp B→A at 120 min, 5 μM value for Cc1nc(-c2ccc(-c3cnc(N(C)[C@@H]4CC5CC[C@H](N5)[C@@H]4F)cn3)c(O)c2)no1 (single isomer, unassigned) [Compound 69E1]
17.9

Give reported Papp B→A at 120 min, 5 μM value for Cn1cc(-c2ccc(-c3cnc(N(C4CC4)[C@@H]4C[C@@]5(C)CC[C@](C)(N5)[C@@H]4F)cn3)c(O)c2)cn1 [Compound 75E1]
16.1

Give reported Papp B→A at 120 min, 5 μM value for COc1cc(-c2cc(O)c(-c3cnc(N(C4CC4)[C@H]4C[C@@H]5CCC(N5)[C@H]4F)cn3)cc2F)ccn1 (single isomer, unassigned) [Compound 36E2]
1.3

Give reported Papp B→A at 120 min, 5 μM value for COc1cc(-c2cc(O)c(-c3cnc(N(C)[C@H]4C[C@@H]5CCC(N5)[C@H]4F)cn3)cc2F)ncn1 (single isomer, unassigned) [Compound 34E2]
7.23

Give reported Papp B→A at 120 min, 5 μM value for Cn1cnc(-c2cc(O)c(-c3cnc(N(C4CC4)[C@@H]4CC5CC[C@H](N5)[C@@H]4F)cn3)cc2F)cc1=O (single isomer, unassigned) [Compound 50E1]
46.4

Give reported Papp B→A at 120 min, 5 μM value for CNC(=O)c1cc(O)c(-c2cnc(N(C)[C@H]3C[C@@H]4CCC(N4)[C@H]3F)cn2)cc1F (single isomer, unassigned) [Compound 15E2]
68.8

Give reported Papp B→A at 120 min, 5 μM value for CN(c1cnc(-c2cc(F)c(-c3cc(=O)n(C)cn3)cc2O)cn1)[C@H]1C[C@@H]2CCC(N2)[C@H]1F (single isomer, unassigned) [Compound 33E2]
62.7

Give reported Papp B→A at 120 min, 5 μM value for CN(C)C(=O)c1cc(O)c(-c2cnc(N(C)[C@@H]3CC4CC[C@H](N4)[C@@H]3F)cn2)cc1F (single isomer, unassigned) [Compound 14E1]
39.1

====

In this section we review reported Papp A→B at 120 min, 5 μM values for a set of compounds.
Test system: MDR1
Assay: in vitro
Details: dog, MDCK-MDR1, pH 7.4, MDCK-MDR1: Papp A-B (10^−6, cm/s)
Respond with the bare value in ×10⁻⁶ cm/s.

# annotated cases, reported Papp A→B at 120 min, 5 μM shown
Give reported Papp A→B at 120 min, 5 μM value for Cn1cnc(-c2cc(O)c(-c3cnc(N(C4CC4)[C@H]4C[C@@H]5CCC(N5)[C@H]4F)cn3)cc2F)cc1=O (single isomer, unassigned) [Compound 50E2]
1.29

Give reported Papp A→B at 120 min, 5 μM value for Oc1cc(-c2cn[nH]c2)ccc1-c1cnc(O[C@H]2CC3CC[C@@H](N3)[C@H]2F)cn1 (single isomer, unassigned) [Compound 1E1]
8.22

Give reported Papp A→B at 120 min, 5 μM value for C[C@@]12CC[C@@](C)(N1)[C@@H](F)[C@@H](Oc1cnc(-c3ccc(-c4cn[nH]c4)cc3O)cn1)C2 [Compound 2E1]
7.93

Give reported Papp A→B at 120 min, 5 μM value for CN(c1cnc(-c2cc(F)c(-c3ccn(C)c(=O)c3)cc2O)cn1)[C@H]1C[C@@H]2CCC(N2)[C@H]1F (single isomer, unassigned) [Compound 13E2]
1.97

Give reported Papp A→B at 120 min, 5 μM value for CN(C)C(=O)c1cc2cc(O)c(-c3cnc(N(C)[C@H]4CC5CC[C@@H](N5)[C@H]4F)cn3)cc2o1 (single isomer, unassigned) [Compound 7E2]
1.92

New cases:
Give reported Papp A→B at 120 min, 5 μM value for CN(c1cnc(-c2cc(F)c(-c3cnn(C)c3)cc2O)cn1)[C@H]1C[C@]2(C)CC[C@@](C)(N2)[C@H]1F [Compound 58E2]
5.98
